Values compiled from PubChem BioAssay (NCI).

Tested on: MDA-MB-435 melanoma
experiment summary: NCI-60 one-dose screen, 48 h
condition context: 10 µM
Compounds without any hit were thinned out: in the full panel of roughly 83,000, 20% have a hit. Calls of active or inactive are those of the source. How the source made its calls: active means growth percent below 10; inactive means the rest.
Answer with one of the outcomes given here: active, inactive

As a guide, the following entries are already answered.
{"compound": "COc1cc(C2c3cc4c(cc3C3OC(=O)C2C3CO)OCO4)cc(OC)c1OC (stereo unspecified)", "target desc": "MDA-MB-435 melanoma", "category label": "active"}
{"compound": "CC(=O)OC1CC2C(C)(C)OC3CC(=O)OCC32C2CCC3(C)C(=CCC3c3ccoc3)C12C (stereo unspecified)", "target desc": "MDA-MB-435 melanoma", "category label": "inactive"}

**Q:** Please state the recorded outcome for this compound: CCCCOC(OCCCC)c1ccccc1
**A:** inactive

**Q:** Field: outcome | Entry: Nc1ccc(N)c([N+](=O)[O-])c1
**A:** inactive

**Q:** Test call, this compound: CN(C)c1ccc2oc(=O)c3ccccc3c2c1
**A:** inactive

**Q:** GET /call?item= C[N+](C)(C)C(=O)c1ccccc1 returns the recorded outcome of this test.
**A:** inactive

**Q:** Hey, what did the test say about C1CNC(C2=NCCN2)=N1 ?
**A:** inactive

**Q:** Could you kindly confirm the outcome this assay logged for CSc1[nH]c(=O)ncc1F ?
**A:** inactive

**Q:** State the result this test recorded for CC(=O)c1ccc(N=C(C#N)C2=C(O)c3ccccc3C2=O)cc1 .
**A:** inactive

**Q:** What was the test verdict on N#CCCN(CCCN1CCOCC1)CN1C(=O)c2ccccc2C1=O ?
**A:** inactive

**Q:** What classification did CCOC(=O)c1ccc(Nc2sc(C(=O)c3cccc([N+](=O)[O-])c3)c(N)c2C#N)cc1 end up with in this test?
**A:** active

**Q:** Answer briefly: the call reported for COc1nc(N)nc2c1ncn2C1OC(CO)CC1O (stereo unspecified) in this assay.
**A:** inactive

**Q:** For COc1cccc(/C=N/NC(=S)NC2CC3CCC2C3)c1O (stereo unspecified) , what call appears in the results of this test?
**A:** inactive

**Q:** Answer briefly: the call reported for CCCC(C)OCC(=O)O (stereo unspecified) in this assay.
**A:** inactive

**Q:** Which outcome did this test record for the compound CC(=O)NC(N)=S ?
**A:** inactive

**Q:** I would be grateful if you could indicate the recorded call for NC(=O)N/N=C\c1ccco1 .
**A:** inactive

**Q:** Record lookup: outcome of this test for COC(=O)/C=C\C(=O)OC ?
**A:** inactive

**Q:** Entry O=C1N(C[P+](c2ccccc2)(c2ccccc2)c2ccccc2)CCCN1C[P+](c1ccccc1)(c1ccccc1)c1ccccc1 : call = ?
**A:** inactive

**Q:** Write down the call the test reported for this compound. Item: CC(C)(N)COS(=O)(=O)O
**A:** inactive

----------
Tested on: SN12C renal
experiment summary: NCI-60 one-dose screen, 48 h
condition context: 10 µM
About 83,000 compounds went through this panel and 20% of them were active in at least one assay; those are over-represented in the sample as a whole. Calls of active or inactive are those of the source. The calls were made as follows: active = growth percent below 10; inactive = the rest.
Hello, when you answer, please use one of the following outcomes: active, inactive

Below, 5 compounds whose answers are already recorded.
{"compound": "CCOC(=O)C/C(C)=N\\O", "category label": "inactive"}
{"compound": "COc1cc(CCN=Cc2ccccc2O)c([N+](=O)[O-])cc1OC", "category label": "inactive"}
{"compound": "N#Cc1ccc(OC(=O)Nc2ccc(Cl)c(Cl)c2)cc1", "category label": "inactive"}
{"compound": "CCN(CC)C(=O)/C=C(/C)c1ccccc1", "category label": "inactive"}
{"compound": "CCCC(=O)c1cc(C)ccc1OC", "category label": "inactive"}

**Q:** Lab log entry: CCC(C#N)(CC)c1ccccc1 — outcome as called in the assay?
**A:** inactive

**Q:** Per the records of this test, what outcome belongs to CC(C)=NNc1ccc([N+](=O)[O-])cc1[N+](=O)[O-] ?
**A:** inactive

**Q:** Which outcome was assigned to O=[N+]([O-])c1ccc(CO)cc1 in this test?
**A:** inactive

**Q:** Kindly provide the recorded test outcome for the following compound: C=CC(O)CCC (stereo unspecified)
**A:** inactive

**Q:** Query: recorded result category for CCCCCC(C)(CC(=O)O)CC(=O)O in this test
**A:** inactive

**Q:** Could you check what this test reported for O=S(=O)(O)c1ccc(Cl)c(Cl)c1 ?
**A:** inactive

**Q:** Can you look up the reported call for COc1cc(C(N)=O)cc(OC)c1OC for me?
**A:** inactive

**Q:** Check the results log: what was the call for Nc1ccc(NC(=O)c2cccc(N)c2)cc1 ?
**A:** inactive

**Q:** Dear all, I need the recorded test outcome for O=C1C[C@H](c2ccccc2)[C@H](c2ccccc2)C1 , thank you.
**A:** inactive
